Some molecules, each annotated with its measured clearance.
test: Clearance in Sprague-Dawley rat at 10 mg/kg, po and 2.5 mg/kg, iv; format: ADME, organism-based; conditions: in vivo
Quick reminder: number only, in mL/min/kg, skip the unit.

Would you please look over these solved cases?
COMPOUND_STRING: O[C@H]1CC[C@H](n2ccc3cc(-c4ccn5c(CC(F)(F)F)cnc5c4Cl)ccc32)CC1
clearance / mL/min/kg: 15

COMPOUND_STRING: N#Cc1c(-c2ccc3c(ccn3[C@H]3CC[C@H](O)CC3)c2)ccn2c(CC(F)(F)F)cnc12
clearance / mL/min/kg: 11.7

# context switch: different molecule, same clearance
Entry "N#Cc1c(-c2ccc3c(ccn3C3CCOCC3)c2)ccn2c(CC(F)(F)F)cnc12" — recorded clearance = 83.3

---

assay: Clearance in Sprague-Dawley rat at 10 mg/kg, po and 1.25 mg/kg, iv; format: ADME, organism-based; conditions: in vivo
MEASURED_ATTRIBUTE: clearance (mL/min/kg)
State just the number; it will be interpreted in mL/min/kg.

Per the records, this molecule ( "N#Cc1c(-c2ccc(Oc3ccccc3)cc2)ccn2c(CC(F)(F)F)cnc12" ) has clearance equal to 56.7

---

experiment: Ratio of drug level in brain to plasma of Sprague-Dawley rat at 10 mg/kg, po after 4 hrs; assay type: ADME, organism-based; design: dose 10 mg/kg, route oral; details: brain and plasma, read-out: BPR
MEASURED_ATTRIBUTE: Kp at 4 h
Format: numeric value only, no unit, no commentary.

Entry "FC(F)(F)Cc1cnc2c(Cl)c(-c3cc(Cl)c4[nH]ccc4c3)ccn12" ; Kp at 4 h = 0.8

---

assay: Metabolic stability of Sprague-Dawley rat liver microsomes assessed as compound metabolized at 5 uM after 15 mins; assay type: ADME, Microsome; conditions: read-out: Drug metabolism
metabolised at 0.25 h, 5 µM overview
Only the number, expressed in %, is required.

COMPOUND_STRING: O[C@H]1CC[C@H](n2ccc3cc(-c4ccn5c(CC(F)(F)F)cnc5c4Cl)ccc32)CC1
READING: 8
--
COMPOUND_STRING: N#Cc1c(-c2ccc3c(ccn3[C@H]3CC[C@H](O)CC3)c2)ccn2c(CC(F)(F)F)cnc12
READING: 15
--
COMPOUND_STRING: N#Cc1c(-c2ccc3c(ccn3CC3CC3)c2)ccn2c(CC(F)(F)F)cnc12
READING: 40
--
COMPOUND_STRING: N#Cc1c(-c2ccc(OC3CCOCC3)c(Cl)c2)ccn2c(CC(F)(F)F)cnc12
READING: 50

Consider the additional molecule presented here.
Looking up "N#Cc1c(-c2ccc(NC3CCOCC3)c(Cl)c2)ccn2c(CC(F)(F)F)cnc12" , I found its metabolised at 0.25 h, 5 µM recorded as 36

---

assay: Half life in Sprague-Dawley rat at 10 mg/kg, po; type: ADME, organism-based; set-up: dose 10 mg/kg, route oral; conditions: in vivo
MEASURED_ATTRIBUTE: half-life (h)
Give the number; h is assumed, so skip it.

Per the record, "FC(F)(F)Cc1cnc2c(Cl)c(-c3cc(Cl)c4[nH]ccc4c3)ccn12" has half-life of 2

---

assay: AUC (0 to infinity) in Sprague-Dawley rat at 10 mg/kg, po; type: ADME, organism-based; design: time infinity, dose 10 mg/kg, route oral; settings: plasma
MEASURED_ATTRIBUTE: AUC(0-inf)

"FC(F)(F)Cc1cnc2c(Cl)c(-c3cc(Cl)c4[nH]ccc4c3)ccn12" yielded AUC(0-inf) of 1980 ng·h/mL

---

test: Drug uptake in SPF Swiss mouse brain at 10 mg/kg, sc after 4 hrs; type: ADME, organism-based; parameters: dose 10 mg/kg, route subcutaneous; conditions: read-out: Drug uptake
MEASURED_ATTRIBUTE: concentration at 4 h (ng/g)
Kindly provide the numeric value in ng/g only, without the unit symbol.

COMPOUND_STRING: N#Cc1c(-c2ccc(Oc3ccccc3)cc2)ccn2c(CC(F)(F)F)cnc12
UNIT_STRING: ng/g
concentration at 4 h: 221

Documented concentration at 4 h of "N#Cc1c(-c2ccc3c(ccn3[C@H]3CC[C@H](O)CC3)c2)ccn2c(CC(F)(F)F)cnc12" : 280

---

experiment: Ratio of drug level in brain to plasma of SPF Swiss mouse at 10 mg/kg, sc after 4 hrs; format: ADME, organism-based; set-up: dose 10 mg/kg, route subcutaneous; settings: read-out: BPR
MEASURED_ATTRIBUTE: Kp at 4 h
The answer should be written as a number, with no unit following it.

COMPOUND_STRING: N#Cc1c(-c2ccc(Oc3ccccc3)cc2)ccn2c(CC(F)(F)F)cnc12
Kp at 4 h: 1.9

Please examine the following record next.
Reported Kp at 4 h for "N#Cc1c(-c2ccc3c(ccn3[C@H]3CC[C@H](O)CC3)c2)ccn2c(CC(F)(F)F)cnc12" was 0.1

---

Reported metabolised at 0.25 h, 5 µM by item:
test: Metabolic stability of Sprague-Dawley rat liver microsomes assessed as compound metabolized at 5 uM after 15 mins; format: ADME, Microsome; conditions: read-out: Drug metabolism
The reply should contain only the number, in %.

See these solved cases before continuing.
COMPOUND_STRING: N#Cc1c(-c2ccc3c(c2)OCCN3)ccn2c(CC(F)(F)F)cnc12
UNIT_STRING: %
metabolised at 0.25 h, 5 µM: 100
--
COMPOUND_STRING: N#Cc1c(-c2cc(Cl)c3[nH]ccc3c2)ccn2c(CC(F)(F)F)cnc12
UNIT_STRING: %
metabolised at 0.25 h, 5 µM: 49
--
COMPOUND_STRING: FC(F)(F)Cc1cnc2c(Cl)c(-c3cc(Cl)c4c(ccn4CC4CC4)c3)ccn12
UNIT_STRING: %
metabolised at 0.25 h, 5 µM: 70
--
COMPOUND_STRING: N#Cc1c(-c2ccc3c(ccn3C3CCOCC3)c2)ccn2c(CC(F)(F)F)cnc12
UNIT_STRING: %
metabolised at 0.25 h, 5 µM: 28

Sure, the documented metabolised at 0.25 h, 5 µM for "FC(F)(F)Cc1cnc2c(Cl)c(-c3cc(Cl)c4[nH]ccc4c3)ccn12" is 21

For reference, reported metabolised at 0.25 h, 5 µM for "Cn1ccc2cc(-c3ccn4c(CC(F)(F)F)cnc4c3C#N)cc(Cl)c21" stands at 62

Given item "Cn1ccc2cc(-c3ccn4c(CC(F)(F)F)cnc4c3C#N)ccc21" , the value recorded as its metabolised at 0.25 h, 5 µM is 55

Note to self: metabolised at 0.25 h, 5 µM recorded for "N#Cc1c(-c2cc(Cl)c3c(ccn3CC3CC3)c2)ccn2c(CC(F)(F)F)cnc12" was 74

So for "N#Cc1c(-c2ccc(Oc3ccccc3)cc2)ccn2c(CC(F)(F)F)cnc12" , the logged metabolised at 0.25 h, 5 µM turned out to be 23

Per the records, this compound ( "O[C@H]1CC[C@H](Nc2ccc(-c3ccn4c(CC(F)(F)F)cnc4c3Cl)cc2Cl)CC1" ) has metabolised at 0.25 h, 5 µM equal to 15

---

experiment: Plasma concentration in SPF Swiss mouse at 10 mg/kg, sc after 4 hrs; assay type: ADME, organism-based; set-up: dose 10 mg/kg, route subcutaneous
MEASURED_ATTRIBUTE: concentration at 4 h
# answer = value followed by unit

COMPOUND_STRING: N#Cc1c(-c2ccc3c(ccn3[C@H]3CC[C@H](O)CC3)c2)ccn2c(CC(F)(F)F)cnc12
concentration at 4 h: 3860 ng/mL

// next entry
Notebook: "N#Cc1c(-c2ccc(Oc3ccccc3)cc2)ccn2c(CC(F)(F)F)cnc12" , concentration at 4 h read as 114 ng/mL

---

experiment: Plasma concentration in SPF Swiss mouse at 10 mg/kg, sc after 2 hrs; assay type: ADME, organism-based; set-up: dose 10 mg/kg, route subcutaneous
MEASURED_ATTRIBUTE: concentration at 2 h (ng/mL)
Reply numerically in ng/mL, unit not repeated.

Worked examples follow.
COMPOUND_STRING: N#Cc1c(-c2ccc(Oc3ccccc3)cc2)ccn2c(CC(F)(F)F)cnc12
MEASURED_ATTRIBUTE: concentration at 2 h
READING: 893

COMPOUND_STRING: N#Cc1c(-c2ccc3c(ccn3[C@H]3CC[C@H](O)CC3)c2)ccn2c(CC(F)(F)F)cnc12
MEASURED_ATTRIBUTE: concentration at 2 h
READING: 4500

// moving on: another record for concentration at 2 h
// concentration at 2 h lookup, compound = "N#Cc1c(-c2ccc3c(ccn3C3CCOCC3)c2)ccn2c(CC(F)(F)F)cnc12" , result: 95

---

As shown below, each of these molecules has a reported concentration at 2 h value.
assay: Plasma concentration in Sprague-Dawley rat at 10 mg/kg, sc after 2 hrs; type: ADME, organism-based; design: dose 10 mg/kg, route subcutaneous
Give the number; ng/mL is assumed, so skip it.

COMPOUND_STRING: O[C@H]1CC[C@H](n2ccc3cc(-c4ccn5c(CC(F)(F)F)cnc5c4Cl)ccc32)CC1
MEASURED_ATTRIBUTE: concentration at 2 h
READING: 3730

Lab note: next molecule to report on.
The molecule identified as "O[C@H]1CC[C@H](Nc2ccc(-c3ccn4c(CC(F)(F)F)cnc4c3Cl)cc2Cl)CC1" registered its concentration at 2 h at 1280
